Biological target: KRAS G12S (Homo sapiens, UniProt P01116, G12S)
Sequence (P01116 1-188 isoform P01116-2 G12S): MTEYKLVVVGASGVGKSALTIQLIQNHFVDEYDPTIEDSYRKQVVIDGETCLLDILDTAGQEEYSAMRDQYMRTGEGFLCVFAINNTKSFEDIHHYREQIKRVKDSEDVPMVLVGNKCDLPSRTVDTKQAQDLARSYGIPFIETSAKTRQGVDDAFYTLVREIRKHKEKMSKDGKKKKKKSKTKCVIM
Experiment: HTRF KRAS-SOS1 interaction assay, KRAS G12S
Details: binned ≤2 μM / >2 μM, read-out: Inhibition of KRAS G12S (IC50)
readout: IC50

Some solved entries appear below for comparison.
N#Cc1c(N)sc2c(F)ccc(-c3c(C(F)(F)F)c4c5c(nc(OC[C@@]67CCCN6C[C@H](F)C7)nc5c3F)N([C@H](CCCN3CCCCC3)c3cccnc3N)CCO4)c12 (single isomer, unassigned) [Compound 704]    ≤ 2 µM
N#Cc1c(N)sc2c(F)ccc(-c3c(Cl)c4c5c(nc(OC[C@@]67CCCN6C[C@@]6(CC6(F)F)C7)nc5c3F)N([C@@H](c3cccnc3N)C(F)F)CCO4)c12 [Compound 831]    ≤ 2 µM

Please look at the following compound next.
[in] Hi! What's the reported IC50 for C[C@H](c1cccnc1N)N1CCOc2c(Cl)c(-c3ccc(F)c4sc(N)c(C#N)c34)c(F)c3nc(OC[C@@]45CCCN4CC(CP(C)(C)=O)C5)nc1c23 (mixture of isomers) [Compound 839] on KRAS G12S (Homo sapiens, UniProt P01116, G12S)?
[out] ≤ 2 µM
